- assay_method_text: chemical genetic growth profiling, strain panel (AID 1159580);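 further: tested at 20 µM; growth read once vehicle control cultures reached saturation at 30 °C; 1 = growth at the plate median or of vehicle wells; lower values mean less growth of the strain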
- test_context: S. cerevisiae deletion strains, growth OD, locus YBR135W, strain CKS1, hits give low values
The campaign covered roughly 5,500 compounds. About 2,000 (36%) were called active. Another 18% or so got no clear call; they are omitted. The list shows a part of the results.
In this section we review reported normalized growth values for a set of molecules.
Would you mind answering with just the numeric figure?

INSERT INTO measurements (smiles_structure, endpoint_value) VALUES
  ('Cc1ccc(S(=O)(=O)n2c(Sc3ccc([N+](=O)[O-])cc3[N+](=O)[O-])nc3cc(C)ccc32)cc1', 0.983),
  ('COc1ccc2nc3ccccc3c(N)c2c1', 0.722),
  ('CCOC(=O)c1cc(CC)sc1NC(=O)c1ccc([N+](=O)[O-])o1', 0.992),
  ('Cc1nc(-c2ccccn2)nc(N(C)Cc2ccccc2)c1Cl', 0.967);

Quick one: normalized growth of O=C(N/N=C\c1cc(Br)ccc1O)c1ccccc1Oc1ccccc1 ?
0.981

Next up: Clc1ccc2c(c1)c1ccccc1n2CN1CCOCC1
0.925

Further, for Cc1nc(-c2ccccn2)nc(SCc2ccccc2)c1Cl ?
0.941

Try this molecule too: C=CCc1c(CCC)nc(-c2ccccn2)[nH]c1=O
0.95

Proceed to Nc1ccccc1C(=O)N/N=C\c1cc(Br)ccc1O
0.981

# repeat for CCCc1nc(-c2ccccn2)[nH]c(=O)c1CC1CC1
0.955

Moving on to the next molecule: N#Cc1c2ccccc2nc2ccccc12
0.808

For Brc1ccc2[nH]c3c(c2c1)CCC3 then?
0.934

---

- assay_method_text: chemical genetic growth profiling, strain panel (AID 1159580);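 further: tested at 20 µM; growth read once vehicle control cultures reached saturation at 30 °C; 1 = growth at the plate median or of vehicle wells; lower values mean less growth of the strain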
- test_context: S. cerevisiae deletion strains, growth OD, locus YDL040C, strain nat1
The campaign covered roughly 5,500 compounds. About 2,000 (36%) were called active. Another 18% or so got no clear call; they are omitted. No stated cut-off is given here; in the data, active means normalized growth mostly below about 0.91 (no sharp cut-off); inconclusive means no clear call, values can overlap the other calls; inactive means mostly above about 0.92. This is one part of the list. Where a SMILES comes first, the peptide text is derived from it. Bridges are numbered along the chain shown (N, C = ends). [ ]: non-standard residue; d: D form. The star is where a group is joined. ξ: configuration not given here. ξDab(CH2SO3H) = NC(CCNCS(=O)(=O)O)C(=O)O; Heptanoyl(6-Me) = CC(C)CCCCC(=O)*; Dab = NCC[CH](N)C(=O)O
Please state which outcome applies, choosing from yes (1) (active), no (0) (inactive)

Sample answers from the record:
INSERT INTO assay_data (molecule, assigned_label) VALUES
  ('C[C@@H]1C(=O)O[C@H]2[C@H]1CC[C@@]1(C)C=CC(=O)[C@@]3(C)O[C@@]213', 'no (0)'),
  ('CC(C)(Oc1ccc(CCNC(=O)c2ccc(Cl)cc2)cc1)C(=O)O', 'no (0)'),
  ('NNC(=O)c1ccncc1', 'no (0)'),
  ('CC(C)(Sc1cc(C(C)(C)C)c(O)c(C(C)(C)C)c1)Sc1cc(C(C)(C)C)c(O)c(C(C)(C)C)c1', 'no (0)'),
  ('CCC(C)C1NC(=O)C(CCNCS(=O)(=O)O)NC(=O)C(NC(=O)C(CCNCS(=O)(=O)O)NC(=O)C(NC(=O)C(CCNCS(=O)(=O)O)NC(=O)CCCCC(C)C)C(C)O)CCNC(=O)C(C(C)O)NC(=O)C(CCNCS(=O)(=O)O)NC(=O)C(CCNCS(=O)(=O)O)NC(=O)C(C(C)CC)NC1=O (stereo not drawn) ({Heptanoyl(6-Me)}-[ξDab(CH2SO3H)]T[ξDab(CH2SO3H)][Dab][ξDab(CH2SO3H)]II[ξDab(CH2SO3H)][ξDab(CH2SO3H)]T; lactam 4-C; configuration not given here)', 'no (0)'),
  ('C#C[C@]1(O)CCC2C3CCC4=CC(=O)CC[C@@H]4C3CC[C@@]21CC (stereo partly drawn)', 'no (0)');

Answer briefly: the call reported for Cc1cc(-n2c(=O)[nH]c(=O)n(C)c2=O)ccc1Oc1ccc(SC(F)(F)F)cc1 in this assay.
yes (1)

Then this molecule: O=C1c2c(O)cccc2Cc2cccc(O)c21
no (0)

---

- assay_method_text: chemical genetic growth profiling, strain panel (AID 1159580);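 further: tested at 20 µM; growth read once vehicle control cultures reached saturation at 30 °C; 1 = growth at the plate median or of vehicle wells; lower values mean less growth of the strain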
- test_context: S. cerevisiae deletion strains, growth OD, locus YLR342W, strain FKS1, hits give low values
In all, about 5,500 compounds went through this assay and about 2,000 (36%) were called active. Not shown: some 18% with an inconclusive outcome. This is one part of the list.
readout_type: normalized growth
Just the number, please.

Guide cases for normalized growth, answers given:
INSERT INTO results (compound, endpoint_value) VALUES
  ('COC(=O)Nc1nc2ccc(Sc3ccccc3)cc2[nH]1', 0.983),
  ('C[C@@H]1C(=O)O[C@H]2[C@H]1CC[C@@]1(C)C=CC(=O)[C@@]3(C)O[C@@]213', 1.01),
  ('COc1c(-c2coc3cc4c(cc3c2=O)CC(OC(C)=O)C(C)(C)O4)ccc2c1C=CC(C)(C)O2 (stereo not given)', 1.03),
  ('CC(=O)NCc1c(I)c(NC(C)=O)c(I)c(C(=O)O)c1I', 0.999),
  ('NC(Cc1c[nH]c2ccccc12)C(=O)O (stereo not given)', 1.02);

Quick check: normalized growth of COc1ccc2[nH]cc(CCN)c2c1 ?
1.01

Entry to check: C#C[C@]1(OC(C)=O)CCC2C3CCC4=CC(=O)CC[C@@H]4C3CC[C@@]21C (stereo not given in full)
0.961

And what about the compound O=C(Nc1ccc(C(=O)O)c(O)c1)c1ccccc1 ?
0.978

Please answer likewise for COC(=O)C[C@H]1C(C)(C)C(=O)[C@@H]2CC3C4=CC(=O)O[C@@H](c5ccoc5)[C@]4(C)CCC3[C@@]1(C)C2=O (stereo not given in full)
0.99

Now the compound Cc1cn([C@H]2C[C@H](N=[N+]=[N-])[C@@H](CO)O2)c(=O)[nH]c1=O
1.01

One more compound: CC(C)CCCC1(C)C=Cc2c(O)c3c(c(CCC(C)C)c2O1)OC12C(CC4CC1C(C)(C)OC2(CCC(C)C(=O)O)C4O)C3=O (stereo not given)
1

Next record, please: CCCCCCCCCCCC[C@H](C(=O)O)[C@@H](C)C(=O)O
0.986

What do you get for COc1c(-c2coc3cc4c(cc3c2=O)CC(O)C(C)(C)O4)ccc2c1C=CC(C)(C)O2 (stereo not given) ?
0.98

Next: Nc1c2ccccc2nc2ccccc12
0.792

Param item: CC(C)(Oc1ccc(CCNC(=O)c2ccc(Cl)cc2)cc1)C(=O)O
0.978

Also check C/C=C1\[C@H]2C=C(C)C[C@]1(N)c1ccc(=O)[nH]c1C2
1.02

Moving on to CC(C)CC(N(C)C)C1(c2ccc(Cl)cc2)CCC1 (stereo not given)
1.01

---

- assay_method_text: chemical genetic growth profiling, strain panel (AID 1159580);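 further: tested at 20 µM; growth read once vehicle control cultures reached saturation at 30 °C; 1 = growth at the plate median or of vehicle wells; lower values mean less growth of the strain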
- test_context: S. cerevisiae deletion strains, growth OD, locus YLR320W, strain mms22, hits give low values
The whole screen tested about 5,500 compounds, of which about 2,000 (36%) were called active. Roughly 18% stayed inconclusive and do not appear here. The list shows a part of the results.
Each entry below carries its recorded normalized growth.
Give only the figure.

INSERT INTO assay_data (compound, readout_type, endpoint_value) VALUES
  ('Nc1ccccc1C(=O)CC(N)C(=O)O (stereo unspecified)', 'normalized growth', 0.983),
  ('COC(=O)Nc1nc2ccc(S(=O)c3ccccc3)cc2[nH]1 (stereo unspecified)', 'normalized growth', 1),
  ('COc1ccc2c(c1)c(CC(=O)OCC(=O)O)c(C)n2C(=O)c1ccc(Cl)cc1', 'normalized growth', 1.01),
  ('CCN1C[C@]2(OC(=O)c3ccccc3NC(C)=O)CCC(OC)[C@]34C1[C@H](CC23)[C@@]1(O)CC(OC)[C@H]2CC4C1(O)[C@H]2OC (stereo partly specified)', 'normalized growth', 0.983),
  ('CC1(C)CC(O)C2(C)CCC3(C)C(=CCC4C5(C)CCC(O)C(C)(CO)C5CCC43C)C2C1 (stereo unspecified)', 'normalized growth', 1.04),
  ('Cc1ccc(S(=O)(=O)NC(=O)NN2CC3CCCC3C2)cc1 (stereo unspecified)', 'normalized growth', 0.983),
  ('CC(=O)O[C@@H]1CC[C@@]2(C)C(CC[C@]3(C)C2CC=C2C4CC(C)(C)CC[C@]4(C(=O)O)CC[C@]23C)C1(C)C (stereo partly specified)', 'normalized growth', 0.968),
  ('CCCOc1ccccc1-c1nc2n[nH]nc2c(=O)[nH]1', 'normalized growth', 1.02);

Which normalized growth reading was recorded for the compound CC(=O)O[C@H]1CC[C@@]2(C)C(CC[C@]3(C)C2CC=C2C4CC(C)(C)CC[C@]4(C)CC[C@]23C)C1(C)C (stereo partly specified) ?
1.05

Also CNCc1ccccc1 , if possible.
1.02
